procedure text: Average particle size (ζ-Average) and PDI by dynamic light scattering (Zetasizer Nano ZSP)
Type: physicochemical
applied conditions: F7siRNA-loaded LNP, 50:10:38.5:1.5, N/P ratio 6
readout label: PDI
Give bare numbers.

Some entries whose results are on file:
CCCCCCC(CCCC)C(=O)OCCCCCCC(O)(CCCCCCOC(=O)C(CCCC)CCCCCC)CCCCN(CCC)CCC (stereo not drawn): 0.006
CCCCCCCCCC(CCCCC)C(=O)OCCCCCCC(O)(CCCCCCOC(=O)C(CCCCC)CCCCCCCCC)CCCCOC(=O)C1CCN(C)CC1 (stereo not drawn) [CL15F 11-5]: 0.017

Could you now consider this next molecule?
Request: // lookup PDI for CCCCCCCCCCCCC(CC)C(=O)OCCCCCCC(O)(CCCCCCOC(=O)C(CC)CCCCCCCCCCCC)CCCCOC(=O)C1CCN(C)CC1 (stereo not drawn) [CL15F 14-2]
Result: 0.13

These entries and their values trace back to patent US12458605B2.
